// provenance: patent US20250163029A1

# experimental protocol: Pharmacokinetic (PK) assay in mice
# Format: in vivo, C57BL6/J strain mice
# experimental setup: C57BL6/J, mouse, plasma, po, 5 mg/kg, PO, 5 mpk, read-out: AUC
# Procedure: Objective of assay: The druggability of compounds was evaluated by measuring their pharmacokinetic properties in different animal species. Assay Materials: C57BL6/J strain mice, Sprague-Dawley strain rats and beagle dogs. The pharmacokinetic characteristics of the compound after intravenous and oral administration were assayed in animals using a standard protocol. […]
Where a name gives a salt, the structure may show the parent alone.

molecule	AUC, µM·h
Cn1cnc(Cc2cn(Cc3cc(F)c(F)cc3F)c(Nc3cc4cn(C)nc4cc3Cl)nc2=O)n1 [Compound 4 hydrochloride]	145

###

# experimental protocol: in vivo
# Design: species or system beagle dogs
# experimental setup: beagle, dog, po, 0.5 mg/kg, AUCfree
Structures can show the parent of a compound that is named as a salt.

compound	AUC, µM·h
Cn1cnc(Cc2cn(Cc3cc(F)c(F)cc3F)c(Nc3cc4cn(C)nc4cc3Cl)nc2=O)n1 [Compound 4 hydrochloride]	0.74

###

# experimental protocol: in vivo
# Set-up: species or system Sprague-Dawley strain rats
# experimental setup: Sprague-Dawley, rat, iv, 0.25 mg/kg
Where a name gives a salt, the structure may show the parent alone.

molecule	half-life (h)
Cn1cnc(Cc2cn(Cc3cc(F)c(F)cc3F)c(Nc3cc4cn(C)nc4cc3Cl)nc2=O)n1 [Compound 4 hydrochloride]	2.2

###

# experimental protocol: in vivo
# Design: species or system Sprague-Dawley strain rats
# experimental setup: Sprague-Dawley, rat, iv, 0.25 mg/kg, AUCfree
Structures can show the parent of a compound that is named as a salt.
value type: AUC (µM·h)

compound	value observed
Cn1cnc(Cc2cn(Cc3cc(F)c(F)cc3F)c(Nc3cc4cn(C)nc4cc3Cl)nc2=O)n1 [Compound 4 hydrochloride]	0.11

###

# experimental protocol: Pharmacokinetic (PK) assay in mice
# Assay type: in vivo, C57BL6/J strain mice
# experimental setup: C57BL6/J, plasma, 1 mg/kg; Mouse, IV, 1 mpk
Where a name gives a salt, the structure may show the parent alone.
value type: half-life (h)

compound	value observed
Cn1cnc(Cc2cn(Cc3cc(F)c(F)cc3F)c(Nc3cc4cn(C)nc4cc3Cl)nc2=O)n1 [Compound 4 hydrochloride]	2.6

###

# experimental protocol: Pharmacokinetic (PK) assay in mice
# Type: in vivo, C57BL6/J strain mice
# experimental setup: C57BL6/J, mouse, plasma, iv, 1 mg/kg, IV, 1 mpk, read-out: AUC
# Description: Objective of assay: The druggability of compounds was evaluated by measuring their pharmacokinetic properties in different animal species. Assay Materials: C57BL6/J strain mice, Sprague-Dawley strain rats and beagle dogs. The pharmacokinetic characteristics of the compound after intravenous and oral administration were assayed in animals using a standard protocol. […]
Structures can show the parent of a compound that is named as a salt.

compound	AUC, µM·h
Cn1cnc(Cc2cn(Cc3cc(F)c(F)cc3F)c(Nc3cc4cn(C)nc4cc3Cl)nc2=O)n1 [Compound 4 hydrochloride]	32.8

###

# experimental protocol: Pharmacokinetic (PK) assay in mice
# Type: in vivo, C57BL6/J strain mice
# experimental setup: C57BL6/J, mouse, plasma, po, 5 mg/kg, PO, 5 mpk, read-out: AUCfree
Counter-ions that a name gives are not always drawn.
value type: AUC (µM·h)

compound	value type	value observed
Cn1cnc(Cc2cn(Cc3cc(F)c(F)cc3F)c(Nc3cc4cn(C)nc4cc3Cl)nc2=O)n1 [Compound 4 hydrochloride]	AUC	4.1
